- System: HeLa
- assay-comment: Inhibitory concentration against human immunodeficiency virus type 1 (with Y188C resistant mutation) was determined in HeLa-CD4 MAGI assay
- Format: functional, cell-based
measurement-name: pIC50
Numbers only, as −log10 of the molar value.

Here's what some known entries look like.
Input line: Return pIC50 measured with HeLa given this compound: `CCCc1c(O)nc2ccc(Cl)cc2c1OCC1CCCCC1`
Output line: 7.64

Input line: Would you kindly repeat that for `CCc1c(O)nc2ccc(F)cc2c1OC#CC1CC1` ?
Output line: 7.00

Input line: Ok, now `O=C1Nc2ccc(Cl)cc2[C@@](C#CC2CC2)(C(F)(F)F)O1`
Output line: 9.00

Input line: Now consider `CCCc1c(O)nc2ccc(OC(F)(F)F)cc2c1OC1CCCC1` .
Output line: 6.44

Input line: Check `CCOc1c(O)nc2ccc(Cl)cc2c1OCC1CCC1` too.
Output line: 6.41

// for each compound below, give its pIC50
1. CCCc1c(OC2CCCCC2)c2cc(Cl)ccc2[nH]c1=O
2. CCC(C)C#COc1c(C(C)C)c(O)nc2ccc(F)cc12 (stereo not drawn)
3. CCCc1c(O)nc2ccc(C)cc2c1OC1CCCC1
4. CCCc1c(O)nc2ccc(F)c([N+](=O)[O-])c2c1OCC1CCC1

Output line:
7.92
7.68
6.62
6.60
